system_name: hemagglutinin (HA) of influenza virus H1N1 A/Puerto Rico/8/34-MA (influenza A virus)
assay_comment: cell-based or functional assay

{"binder": "MD1210 (bispecific antibody) EVQLVESGGGLVQAGGSLKLSCAASGRTYAMGWFRQAPGKEREFVAHINALGTRTYYSDSVKGRFTISRDNAKNTEYLEMNNLKPEDTAVYYCTAQGQWRAAPVAVAAEYEFWGQGTQVTVSSAAAGGGGSGGGGSGGGGSGGGGSGGGGSGGGGSGGGGSEVQLVESGGGLVQPGGSLRLSCAVSISIFDIYAMDWYRQAPGKQRDLVATSFRDGSTNYADSVKGRFTISRDNAKNTLYLQMNSLKPEDTAVYLCHVSLYRDPLGVAGGMGVYWGKGALVTVSS", "neutralization titer, nM": 21.9}
